For each record, write down the corresponding IC50.

Lab note: molecule O=C(NCCc1cccc(C(O)(C(=O)OCC2CCN(Cc3ccccc3)CC2)c2ccccc2)c1)c1ccc(CCNC[C@H](O)c2ccc(O)c3[nH]c(=O)ccc23)cc1 (stereo partly drawn) [Compound 40] tested on Human β2 adrenoceptor (Homo sapiens, UniProt P07550); recorded IC50 was 0.3 to 3 nM

The molecule COc1cc(NC(=O)COc2cccc([C@](O)(C(=O)OCC3CCN(Cc4ccccc4)CC3)c3ccccc3)c2)ccc1CNC[C@H](O)c1ccc(O)c2[nH]c(=O)ccc12 [Compound 42A] , tested on Human β2 adrenoceptor (Homo sapiens, UniProt P07550), showed IC50 of 0.3 to 3 nM

Human β2 adrenoceptor (Homo sapiens, UniProt P07550) data for CN1CC[C@@H](OC(=O)[C@](O)(c2ccccc2)c2cccc(OCCCCCNC[C@H](O)c3ccc(O)c4[nH]c(=O)ccc34)c2)C1 [Compound 19] ; its IC50: < 0.3 nM

Entry O=C(OCC1CCN(Cc2ccccc2)CC1)C(O)(c1cccc(OCCCCCNC[C@H](O)c2ccc(O)c3[nH]c(=O)ccc23)c1)c1cccs1 (stereo partly drawn) [Compound 9] , Human β2 adrenoceptor (Homo sapiens, UniProt P07550) data, IC50 value: < 0.3 nM

Result for O=C(c1cccc(COc2cccc([C@](O)(C(=O)OCC3CCN(Cc4ccccc4)CC3)c3ccccc3)c2)c1)N1CCC(CNC[C@H](O)c2ccc(O)c3[nH]c(=O)ccc23)CC1 [Compound 35] , tested on Human β2 adrenoceptor (Homo sapiens, UniProt P07550), IC50: < 0.3 nM

Hey, Human β2 adrenoceptor (Homo sapiens, UniProt P07550) data for O=C(OCC1CCN(Cc2ccccc2)CC1)[C@](O)(c1ccccc1)c1cccc(OCCCCCCCNC[C@H](O)c2ccc(O)c3[nH]c(=O)ccc23)c1 [Compound 28] : IC50 came out at 0.3 to 3 nM

====

Provide the recorded pIC50 for the entries that follow.
# targetOrTestSystem: UniProtKB P20309
# Sequence (P20309 whole entry): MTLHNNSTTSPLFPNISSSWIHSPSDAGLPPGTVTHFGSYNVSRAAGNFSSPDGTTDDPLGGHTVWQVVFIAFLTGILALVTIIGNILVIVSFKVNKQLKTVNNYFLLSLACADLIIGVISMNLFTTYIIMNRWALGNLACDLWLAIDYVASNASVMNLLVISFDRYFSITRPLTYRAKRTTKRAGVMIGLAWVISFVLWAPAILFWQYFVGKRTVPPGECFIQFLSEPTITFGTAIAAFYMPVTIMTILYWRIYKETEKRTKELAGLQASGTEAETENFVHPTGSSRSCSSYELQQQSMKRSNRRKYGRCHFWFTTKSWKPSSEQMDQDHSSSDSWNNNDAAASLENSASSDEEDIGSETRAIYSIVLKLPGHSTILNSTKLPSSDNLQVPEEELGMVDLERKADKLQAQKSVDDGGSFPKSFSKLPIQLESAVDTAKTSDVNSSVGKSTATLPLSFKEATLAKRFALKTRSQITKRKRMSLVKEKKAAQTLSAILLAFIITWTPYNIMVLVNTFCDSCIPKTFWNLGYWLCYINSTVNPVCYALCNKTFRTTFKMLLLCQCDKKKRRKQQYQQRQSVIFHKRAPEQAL
pIC50: −log10 of the molar value.

Form: compound = O=C(COc1cccc([C@](O)(C(=O)OCC2CCN(Cc3ccccc3)CC2)c2ccccc2)c1)N1CC2(CCN(C(=O)c3ccc(CCNC[C@H](O)c4ccc(O)c5[nH]c(=O)ccc45)cc3)CC2)C1 ; pIC50 = > 9.52

Entry O=C(COc1cccc([C@](O)(C(=O)OCC2CCN(Cc3ccccc3)CC2)c2ccccc2)c1)N[C@H]1C[C@H](NC(=O)c2ccc(CNC[C@H](O)c3ccc(O)c4[nH]c(=O)ccc34)cc2F)C1 — recorded pIC50 = 8.52 to 9.52

Just so you know, measured pIC50 for O=C(COc1cccc([C@](O)(C(=O)OCC2CCN(Cc3ccccc3)CC2)c2ccccc2)c1)N[C@H]1C[C@H](NC(=O)c2ccc(CNC[C@H](O)c3ccc(O)c4[nH]c(=O)ccc34)cc2)C1 came out at > 9.52

Entry O=C(N[C@@H]1CCCN(C(=O)COc2cccc([C@](O)(C(=O)OCC3CCN(Cc4ccccc4)CC3)c3ccccc3)c2)C1)c1ccc(CCNC[C@H](O)c2ccc(O)c3[nH]c(=O)ccc23)cc1 , pIC50 reported as 8.52 to 9.52

Sample COc1cc(C(=O)N2CCC3(CCN(C(=O)COc4cccc([C@](O)(C(=O)OCC5CCN(Cc6ccccc6)CC5)c5ccccc5)c4)CC3)CC2)ccc1CNC[C@H](O)c1ccc(O)c2[nH]c(=O)ccc12 ; pIC50 observed: > 9.52

====

Please respond with reported IC50 for every item in the list.

Record O=C(c1ccc(CCNC[C@H](O)c2ccc(O)c3[nH]c(=O)ccc23)cc1)N1CCCC2(C1)CN(C(=O)c1ccc(COc3cccc([C@](O)(C(=O)OCC4CCN(Cc5ccccc5)CC4)c4ccccc4)c3)cc1)C2 [Compound 120] ; system Human β2 adrenoceptor (Homo sapiens, UniProt P07550); IC50 = < 0.3 nM

Readout IC50 for O=C(COc1cccc([C@](O)(C(=O)OCC2CCN(Cc3ccccc3)CC2)c2ccccc2)c1)N[C@H]1CCN(C(=O)c2ccc(CNC[C@H](O)c3ccc(O)c4[nH]c(=O)ccc34)cc2)C1 [Compound 70] , test system Human β2 adrenoceptor (Homo sapiens, UniProt P07550), was 0.3 to 3 nM

The recorded IC50 with Human β2 adrenoceptor (Homo sapiens, UniProt P07550) for O=C1C=Cc2c([C@@H](O)CNCCC3CCN(C(=O)c4ccc(COc5cccc([C@](O)(C(=O)OCC6CCN(Cc7ccccc7)CC6)c6ccccc6)c5)cc4)CC3)ccc(O)c2C1 [Compound 33A] was < 0.3 nM

IC50 on Human β2 adrenoceptor (Homo sapiens, UniProt P07550) for O=C(c1ccc(CCNC[C@H](O)c2ccc(O)c3[nH]c(=O)ccc23)cc1)N1CCC(COc2cccc([C@](O)(C(=O)OCC3CCN(Cc4ccccc4)CC3)c3ccccc3)c2)CC1 [Compound 31] is < 0.3 nM

Hey, Human β2 adrenoceptor (Homo sapiens, UniProt P07550) data for O=C(OCC1CCN(Cc2ccccc2)CC1)[C@](O)(c1ccccc1)c1cccc(OCC2CCN(C(=O)[C@H]3CC[C@H](C(=O)N4CCC(CNC[C@H](O)c5ccc(O)c6[nH]c(=O)ccc56)CC4)CC3)CC2)c1 [Compound 157] : IC50 came out at > 3 nM

====

For each entry below, report its IC50 value.

Observed IC50 on Human β2 adrenoceptor (Homo sapiens), entry O=C(NCCCNC(=O)c1ccc(CNC[C@H](O)c2ccc(O)c3[nH]c(=O)ccc23)cc1)Nc1cccc(C(O)(C(=O)OCC2CCN(Cc3ccccc3)CC2)c2ccccc2)c1 (stereo partly shown) [Compound 56, diformate] , equals > 3 nM

Log: Human β2 adrenoceptor (Homo sapiens), compound O=C(NC1CCN(C(=O)COc2cccc([C@](O)(C(=O)OCC3CCN(Cc4ccccc4)CC3)c3ccccc3)c2)CC1)c1ccc(CCNC[C@H](O)c2ccc(O)c3[nH]c(=O)ccc23)cc1 [Compound 92] , IC50 = < 0.3 nM

Bench note, Human β2 adrenoceptor (Homo sapiens): entry O=C(NCCNC(=O)c1ccc(COc2cccc([C@](O)(C(=O)OCC3CCN(Cc4ccccc4)CC3)c3ccccc3)c2)cc1)c1ccc(CNC[C@H](O)c2ccc(O)c3[nH]c(=O)ccc23)cc1 [Compound 125] , its IC50 = 0.3 to 3 nM

Short answer on Human β2 adrenoceptor (Homo sapiens) for O=C(COc1cccc([C@](O)(C(=O)OCC2CCN(Cc3ccccc3)CC2)c2ccccc2)c1)N[C@H]1C[C@H](NC(=O)Cc2ccc(CNC[C@H](O)c3ccc(O)c4[nH]c(=O)ccc34)cc2)C1 [Compound 146] , IC50: > 3 nM

Human β2 adrenoceptor (Homo sapiens) IC50 of Cc1ccc(C(O)(C(=O)OCC2CCN(Cc3ccccc3)CC2)c2cccc(OCCCCCNC[C@H](O)c3ccc(O)c4[nH]c(=O)ccc34)c2)cc1 (stereo partly shown) [Compound 2] is 0.3 to 3 nM

// compound O=C(N[C@H]1CCCN(C(=O)COc2cccc([C@](O)(C(=O)OCC3CCN(Cc4ccccc4)CC3)c3ccccc3)c2)C1)c1ccc(CCNC[C@H](O)c2ccc(O)c3[nH]c(=O)ccc23)cc1 [Compound 108] , assay Human β2 adrenoceptor (Homo sapiens), IC50 value: 0.3 to 3 nM

Fill in: Human β2 adrenoceptor (Homo sapiens) IC50 for O=C(NCCCNC[C@H](O)c1ccc(O)c2[nH]c(=O)ccc12)c1ccc(COc2cccc([C@](O)(C(=O)OCC3CCN(Cc4ccccc4)CC3)c3ccccc3)c2)cc1 [Compound 43] = < 0.3 nM

// compound O=C(COc1cccc([C@](O)(C(=O)OCC2CCN(Cc3ccccc3)CC2)c2ccccc2)c1)N1CC2(CCCN(C(=O)c3ccc(CCNC[C@H](O)c4ccc(O)c5[nH]c(=O)ccc45)cc3)C2)C1 [Compound 98] , assay Human β2 adrenoceptor (Homo sapiens), IC50 value: 0.3 to 3 nM

Measured IC50 for this entry COc1cc(C(=O)NCC(=O)N2CCC(COc3cccc([C@](O)(C(=O)OCC4CCN(Cc5ccccc5)CC4)c4ccccc4)c3)CC2)ccc1CNC[C@H](O)c1ccc(O)c2[nH]c(=O)ccc12 [Compound 153] on Human β2 adrenoceptor (Homo sapiens): < 0.3 nM

Entry COc1cc(C(=O)N2CC(NC(=O)COc3cccc([C@](O)(C(=O)OCC4CCN(Cc5ccccc5)CC4)c4ccccc4)c3)C2)ccc1CNC[C@H](O)c1ccc(O)c2[nH]c(=O)ccc12 [Compound 78] , Human β2 adrenoceptor (Homo sapiens) data, IC50 value: < 0.3 nM

Form field IC50 for item O=C(COc1cccc([C@](O)(C(=O)OCC2CCN(Cc3ccccc3)CC2)c2ccccc2)c1)NC1CCN(C(=O)c2ccc(CCNC[C@H](O)c3ccc(O)c4[nH]c(=O)ccc34)cc2)CC1 [Compound 91] on Human β2 adrenoceptor (Homo sapiens): < 0.3 nM

Item: O=C(NCCN(Cc1ccccc1)C(=O)COc1cccc([C@](O)(C(=O)OCC2CCN(Cc3ccccc3)CC2)c2ccccc2)c1)c1ccc(CCNC[C@H](O)c2ccc(O)c3[nH]c(=O)ccc23)cc1 [Compound 87] | System: Human β2 adrenoceptor (Homo sapiens) | IC50: 0.3 to 3 nM

IC50 value, target or system Human β2 adrenoceptor (Homo sapiens), for COc1cc(CNC[C@H](O)c2ccc(O)c3[nH]c(=O)ccc23)ccc1C(=O)NCCCOc1cccc([C@](O)(C(=O)OCC2CCN(Cc3ccccc3)CC2)c2ccccc2)c1 [Compound 32B] : < 0.3 nM
